protocol-text: E. coli acrAB mutant growth effects, primary screen, E. coli filamentation inducers, strain DRC39, OD650, 48 h (AID 1179);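 note: screen aims at cell division blockers that make cells filament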
run-parameters: E. coli DRC39 delta-acrAB growth, higher = more signal, called active from +8 up or from −8 down
metric: z-score
Give a plain numeric answer without units written out.

>  <test-smiles>
CO[C@H]1COC(=O)[C@@H](C)COC(=O)[C@H](COCc2ccccc2)NC(=O)CC=C[C@H]1C

>  <metric>
z-score

>  <measured-number>
-0.997

$$$$

Exercise: Note down z-score recorded for C=CC[C@@H]1C=C[C@H](ON=C[C@@H](C)[C@H](OCc2ccccc2)C(C)C)[C@@H](CO)O1
Solution: -0.238

Exercise: Note down z-score recorded for C#CCCCON=C1C[C@@H](O)[C@@H](O)[C@@H]2[C@@H]3C(=O)N(C(C)(C)C)C(=O)[C@@H]3CC[C@H]12
Solution: 0.221

Exercise: Note down z-score recorded for CC(CCN1CCCc2nc(C)c(C)cc21)=NO[C@@H](C)c1cc(-c2c(C)cc(C)cc2C)no1
Solution: -0.158

Exercise: Note down z-score recorded for O=c1n(Cc2cc3c(cc2Cl)OCO3)c(=O)n2n1CC[C@@H]1C(=NOC[C@@H](O)COCc3ccco3)[C@H]3O[C@H]3[C@@H](O)[C@@H]12
Solution: -0.527

Exercise: Note down z-score recorded for CC(C)=CCCC(C)=CCON=C1C[C@@H](O)[C@@H](O)[C@@H]2[C@@H]3C(=O)N(c4ccc(F)cc4F)C(=O)[C@@H]3CC[C@@H]12
Solution: 0.345

Exercise: Note down z-score recorded for C#CCCCON=C1C[C@@H](O)[C@@H](O)[C@@H]2[C@@H]3C(=O)N(C(C)(C)C)C(=O)[C@@H]3CC[C@@H]12
Solution: -0.278

* * *

protocol-text: binders of probe aFST on microarray, primary screen, stem cell growth factor project, biochemical, small-molecule microarray, fluorescence 635/667 (AID 1086);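 note: score merges 667 nm fluorescence with signal-to-noise of each printed compound spot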
run-parameters: higher = more signal
Mark no (0) for composite z-score values under 0.008, and yes (1) for everything at or above.

Past entries and their recorded results:
>  <compound>
CC(C)CON=C1C[C@@H](O)[C@@H](O)[C@@H]2[C@@H]3C(=O)N(C[C@@H]4CCCO4)C(=O)[C@@H]3CC[C@@H]12

>  <discrete-label>
no (0)

$$$$
>  <compound>
Cc1ccc(S(=O)(=O)N[C@H]2COC(=O)CC=C[C@@H](C)COC(=O)CC=C[C@@H]2C)cc1

>  <discrete-label>
no (0)

$$$$
>  <compound>
COC(=O)CC=C[C@@H](C)[C@H](OCc1cccc(-c2ccccc2)c1)C1CCCCC1

>  <discrete-label>
no (0)

$$$$
>  <compound>
COC(=O)[C@H](C)NC(=O)CCC1CC(OC(=O)NCc2ccc3c(c2)OCO3)CC2(CCCC(COC(=O)NCC(c3ccccc3)c3ccccc3)O2)O1 (stereo not given in full)

>  <discrete-label>
yes (1)

$$$$
>  <compound>
CCCNC(=O)OC[C@H]1O[C@H](CCON=C(C)CCN2CCCc3nc(C)c(C)cc32)C=C[C@@H]1Oc1ccc(OC)cc1

>  <discrete-label>
yes (1)

$$$$
>  <compound>
CO[C@@H]1COC(=O)CC=C[C@@H](C)[C@H](OC)COC(=O)[C@@H](C)COC(=O)CC=C[C@H]1C

>  <discrete-label>
no (0)

$$$$
>  <compound>
CON=Cc1ccc(C(=O)N2[C@H](c3ccc(C)cc3)[C@@H](C)CC[C@H]2C(=O)OC)cc1

>  <discrete-label>
yes (1)

$$$$
>  <compound>
COc1ccc(COC(=O)NN=C2C[C@@H](O)[C@@H](O)[C@@H]3[C@@H]4C(=O)N(c5ccc(F)cc5F)C(=O)[C@@H]4CC[C@H]23)cc1

>  <discrete-label>
yes (1)

$$$$

Exercise: I'd appreciate it if you could say whether COc1ccc(O[C@H]2C=C[C@@H](c3ccccc3)O[C@@H]2CON=C2[C@H]3CCn4c(=O)n(-c5ccccc5)c(=O)n4[C@H]3[C@H](O)[C@@H]3O[C@H]23)cc1 has composite z-score at least equal to 0.008.
Solution: yes (1)

Exercise: I'd appreciate it if you could say whether C#CCCCON=C1C[C@@H](O)[C@@H](O)[C@@H]2[C@@H]3C(=O)N(CC)C(=O)[C@@H]3CC[C@@H]12 has composite z-score at least equal to 0.008.
Solution: yes (1)

Exercise: I'd appreciate it if you could say whether CC(C)(C)N1C(=O)[C@H]2[C@H]3[C@H](O)C=CC(=O)[C@@H]3CC[C@H]2C1=O has composite z-score at least equal to 0.008.
Solution: yes (1)

Exercise: I'd appreciate it if you could say whether CCOC(=O)NN=C1C[C@@H](O)[C@@H](O)[C@@H]2[C@@H]3C(=O)N(c4ccc(F)cc4F)C(=O)[C@@H]3CC[C@@H]12 has composite z-score at least equal to 0.008.
Solution: yes (1)

Exercise: I'd appreciate it if you could say whether CCOC(=O)[C@H](CC(C)C)NC(=O)CCC1CC(OC(=O)NCCc2ccc(F)cc2)CC2(CCCC(COC(=O)NCCc3ccc(Cl)cc3)O2)O1 (stereo not given in full) has composite z-score at least equal to 0.008.
Solution: yes (1)

Exercise: I'd appreciate it if you could say whether C[C@H]1CC[C@H]2C(=O)O[C@H](COc3ccc(C(C)(C)C)cc3)CN2[C@@H]1c1ccc(Br)cc1 has composite z-score at least equal to 0.008.
Solution: yes (1)
